Test system: U2OS
test name: Multiplex assay against U2OS
Type: toxicity, cell-based
setup conditions: human, 24 h, 10 µM, compound concentration 10 uM, replicate 1
observed property: Population Mitochondria Different-Phenotype (%)

>>> value_observed("c1ccc(-c2oc3ncnc(NC[C@@H]4CCCO4)c3c2-c2ccccc2)cc1")
74
>>> value_observed("Cc1c(Nc2ccc(S(=O)(=O)N3CCN(C)CC3)cc2F)nc2ccc(Nc3cnn(C4CC4)c3)cn2c1=O")
15
>>> value_observed("CCCCN(CC)c1nc(C)nc2c1c(C)cn2-c1c(C)cc(C)cc1C.Cl")
48
>>> value_observed("N#CCNC(=O)c1ccc(-c2ccnc(Nc3ccc(N4CCOCC4)cc3)n2)cc1")
20
>>> value_observed("Cc1ccc(S(=O)(=O)NC2c3ccccc3Oc3ccccc32)cc1")
18
>>> value_observed("Cc1ccc(NC(=O)Nc2cc(C(F)(F)F)ccc2F)cc1Nc1ccc2c(c1)NC(=O)/C2=C\\c1ccc[nH]1")
22
>>> value_observed("C=CC(=O)Nc1cc(-n2c(=O)ccc3cnc4ccc(-c5ccc(NS(C)(=O)=O)cc5)cc4c32)ccc1C")
17
>>> value_observed("CCOC(=O)CCNc1cc(N2CCc3ccccc3CC2)nc(-c2ccccn2)n1")
37
>>> value_observed("CC(/C=C1\\SC(=S)N(CCCC(=O)Nc2ccc(C(=O)O)c(O)c2)C1=O)=C\\c1ccccc1")
8
>>> value_observed("CC(Cc1ccc(O)c(O)c1)C(C)Cc1ccc(O)c(O)c1 (stereo unspecified) [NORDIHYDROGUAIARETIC ACID]")
15
>>> value_observed("CN(c1cc(C(F)(F)F)nc(OCCC(=O)O)n1)c1cccc2c1CCC2")
10
>>> value_observed("CCOc1ccn(-c2ccc(F)cc2)c(=O)c1C(=O)Nc1ccc(Oc2ccnc(N)c2Cl)c(F)c1")
27
>>> value_observed("CC[C@@H]1C(=O)N(C)c2cnc(Nc3ccc(C(=O)NC4CCN(C)CC4)cc3OC)nc2N1C1CCCC1")
99
>>> value_observed("Cc1c(P(=S)(c2ccccc2)c2ccccc2)n2ccccc2[n+]1C/C=C/c1ccccc1.[Br-]")
100
>>> value_observed("Cl.NC[C@@H]1O[C@H](C23CC4CC(CC(C4)C2)C3)Cc2c1ccc(O)c2O")
7
>>> value_observed("CC(C)c1cc(Nc2nc(N3CCC[C@H](N)C3)ncc2C(N)=O)cc(C(C)C)n1")
100
>>> value_observed("CC[C@@]1(O)C(=O)OCc2c1cc1n(c2=O)Cc2cc3ccccc3nc2-1")
41
>>> value_observed("Cl.Cn1c2c(c3ccc(Cl)c(Cl)c31)C(C#N)C1(CCNCC1)NC2=O (stereo unspecified)")
100
>>> value_observed("CC[C@H](Nc1ncnc2[nH]cnc12)c1nc2cccc(F)c2c(=O)n1-c1ccccc1")
19
>>> value_observed("N#Cc1cccc(C(=O)Nc2cc(-c3ccccc3)nn2-c2ccccc2)c1")
78
>>> value_observed("NC(=O)c1ccc2nc(-c3ccc(C4(N)CCC4)cc3)c(-c3ccccc3)n2n1")
31
>>> value_observed("C[C@@H](Oc1cc(-n2cnc3ccc(CN4CCN(C)CC4)cc32)sc1C(N)=O)c1ccccc1C(F)(F)F")
100
>>> value_observed("CCCCCNC(=N)N/N=C/c1c[nH]c2ccc(OC)cc12.O=C(O)/C=C\\C(=O)O [TEGASEROD MALEATE]")
100
>>> value_observed("CC(C)[C@H](CO)Nc1nc(Nc2cccc(Cl)c2)c2ncn(C(C)C)c2n1")
100
>>> value_observed("CN1C(=O)[C@@H](NC(=O)c2cc3ccccc3[nH]2)N=C(c2ccccc2)c2ccccc21 [DEVAZEPIDE]")
29
>>> value_observed("Oc1cccc(-c2nc(N3CCOCC3)c3oc4ncccc4c3n2)c1")
62

* * *

Test system: HEK-293T
test name: Multiplex assay against HEK293T
Assay type: toxicity, cell-based
setup conditions: human, 48 h, 10 µM, compound concentration 10 uM, replicate 2
Lab note: compare Population Mitotic Cells (%) with 50%, writing 1.0 if less and 0.0 if equal or more.

>>> category("C=CC(=O)Nc1cc(-n2c(=O)ccc3cnc4ccc(-c5ccc(NS(C)(=O)=O)cc5)cc4c32)ccc1C")
0.0
>>> category("Oc1cccc(-c2nc(N3CCOCC3)c3oc4ncccc4c3n2)c1")
1.0
>>> category("Cc1c(P(=S)(c2ccccc2)c2ccccc2)n2ccccc2[n+]1C/C=C/c1ccccc1.[Br-]")
1.0
>>> category("Cc1c(Nc2ccc(S(=O)(=O)N3CCN(C)CC3)cc2F)nc2ccc(-c3cnn(C4CC4)c3)cn2c1=O")
0.0
>>> category("CC(C)[C@H](CO)Nc1nc(Nc2cccc(Cl)c2)c2ncn(C(C)C)c2n1")
1.0
>>> category("CCCc1cc(C)[nH]c(=O)c1CNC(=O)c1cc(-c2ccc(N3CCN(C(C)C)CC3)nc2)cc2c1cnn2C(C)C")
1.0
>>> category("N#CCNC(=O)c1ccc(-c2ccnc(Nc3ccc(N4CCOCC4)cc3)n2)cc1")
0.0

* * *

Tested on: U2OS
test name: Multiplex assay against U2OS
Assay type: toxicity, cell-based
setup conditions: human, 48 h, 1 µM, compound concentration 1 uM, replicate 2
observed property: Population Membrane Permeable-Phenotype (%)

>>> value_observed("Oc1cccc(-c2nc(N3CCOCC3)c3oc4ncccc4c3n2)c1")
8
>>> value_observed("CCCCN(CC)c1nc(C)nc2c1c(C)cn2-c1c(C)cc(C)cc1C.Cl")
8
>>> value_observed("CC(Cc1ccc(O)c(O)c1)C(C)Cc1ccc(O)c(O)c1 (stereo not given) [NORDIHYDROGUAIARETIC ACID]")
4
>>> value_observed("CC(/C=C1\\SC(=S)N(CCCC(=O)Nc2ccc(C(=O)O)c(O)c2)C1=O)=C\\c1ccccc1")
10
>>> value_observed("N#CCNC(=O)c1ccc(-c2ccnc(Nc3ccc(N4CCOCC4)cc3)n2)cc1")
8

* * *

Tested on: U2OS
test name: Incucyte cell viability with U2OS; also: filed as whole numbers so only -1 and 0 and 1 occur
Type: toxicity, cell-based
setup conditions: human, 24 h, 10 µM, compound concentration 10 uM, replicate number 1, timepoint 24 hours
# Growth Rate per entry
observed property: Growth Rate

>>> value_observed("CC[C@@H]1CN(C(=O)NCC(F)(F)F)C[C@@H]1c1cnc2cnc3[nH]ccc3n12")
0
>>> value_observed("Cl.O=C(Cc1ccc(Cl)c(Cl)c1)N1CCCC[C@H]1CN1CCCC1")
1
>>> value_observed("CC(C)c1ccc(CC(=O)N2CCC[C@@H](c3cccc(OC(C)(C)C(=O)O)c3)C2)cc1")
1
>>> value_observed("COc1cc(N2CCC(O)CC2)ccc1Nc1cc(Nc2ccccc2S(=O)(=O)C(C)C)c2cc[nH]c2n1")
1
>>> value_observed("CN(c1cc(C(F)(F)F)nc(OCCC(=O)O)n1)c1cccc2c1CCC2")
0
>>> value_observed("CCOC(=O)c1ncn2c1CN(C)C(=O)c1cc(F)ccc1-2")
0
>>> value_observed("CC(C)C[C@H](NC(=O)N1CCCCCC1)C(=O)N[C@H](Cc1cn(C)c2ccccc12)C(=O)N[C@H](Cc1ccccn1)C(=O)O")
1
>>> value_observed("Cn1cc(Cl)c2c(Oc3c(F)cc(Nc4cc(Cl)nc(N)n4)cc3F)ccnc21")
1
>>> value_observed("CCOC(=O)c1ccc(C#Cc2ccc3c(c2)C(C)(C)CCS3)nc1")
0

* * *

System: HEK-293T
test name: Multiplex assay against HEK293T
Assay type: toxicity, cell-based
setup conditions: human, 48 h, 10 µM, compound concentration 10 uM, replicate 1
Lab note: compare Population Healthy Nuclei (%) with 20%, writing fulfilled if less and not fulfilled if equal or more.

>>> category("CN1CCN(Cc2ccc(-c3cnc4[nH]cc(-c5ccc6[nH]ccc6c5)c4c3)cc2)CC1")
"fulfilled"
>>> category("CC(C)C[C@H](NC(=O)[C@H](Cc1ccccc1)NC(=O)CNC(=O)CNC(=O)[C@@H](N)Cc1ccc(O)cc1)C(=O)O [ENKEPHALIN]")
"not fulfilled"
>>> category("CCCCCNC(=N)N/N=C/c1c[nH]c2ccc(OC)cc12.O=C(O)/C=C\\C(=O)O [TEGASEROD MALEATE]")
"fulfilled"
>>> category("N#Cc1cccc(C(=O)Nc2cc(-c3ccccc3)nn2-c2ccccc2)c1")
"not fulfilled"
>>> category("CC(/C=C1\\SC(=S)N(CCCC(=O)Nc2ccc(C(=O)O)c(O)c2)C1=O)=C\\c1ccccc1")
"not fulfilled"
>>> category("C[C@@H](Oc1cc(-n2cnc3ccc(CN4CCN(C)CC4)cc32)sc1C(N)=O)c1ccccc1C(F)(F)F [GSK-461364]")
"fulfilled"
>>> category("Cc1c(P(=S)(c2ccccc2)c2ccccc2)n2ccccc2[n+]1C/C=C/c1ccccc1.[Br-]")
"fulfilled"
>>> category("CN(c1cc(C(F)(F)F)nc(OCCC(=O)O)n1)c1cccc2c1CCC2")
"not fulfilled"
>>> category("N#CCNC(=O)c1ccc(-c2ccnc(Nc3ccc(N4CCOCC4)cc3)n2)cc1 [MOMELOTINIB]")
"not fulfilled"
>>> category("CN1C(=O)[C@@H](NC(=O)c2cc3ccccc3[nH]2)N=C(c2ccccc2)c2ccccc21 [DEVAZEPIDE]")
"fulfilled"
>>> category("C=CC(=O)Nc1cc(-n2c(=O)ccc3cnc4ccc(-c5ccc(NS(C)(=O)=O)cc5)cc4c32)ccc1C")
"fulfilled"
>>> category("Cc1c(Nc2ccc(S(=O)(=O)N3CCN(C)CC3)cc2F)nc2ccc(-c3cnn(C4CC4)c3)cn2c1=O")
"not fulfilled"
>>> category("c1ccc(-c2oc3ncnc(NC[C@@H]4CCCO4)c3c2-c2ccccc2)cc1")
"fulfilled"
>>> category("Oc1cccc(-c2nc(N3CCOCC3)c3oc4ncccc4c3n2)c1 [PI-103]")
"fulfilled"
>>> category("CC(C)c1cc(Nc2nc(N3CCC[C@H](N)C3)ncc2C(N)=O)cc(C(C)C)n1")
"fulfilled"
>>> category("CC(C)[C@H](CO)Nc1nc(Nc2cccc(Cl)c2)c2ncn(C(C)C)c2n1 [PURVALANOLA]")
"not fulfilled"
